Listed here: items and their measured log10 of IC50.
target: Serine/threonine-protein kinase haspin (Homo sapiens, UniProt Q8TF76); assay: Inhibition of GST-tagged recombinant human haspin kinase domain incubated for 60 mins by ADP-Glo luminescent kinase assay
Sequence (Q8TF76 whole entry, the tested form may be a part): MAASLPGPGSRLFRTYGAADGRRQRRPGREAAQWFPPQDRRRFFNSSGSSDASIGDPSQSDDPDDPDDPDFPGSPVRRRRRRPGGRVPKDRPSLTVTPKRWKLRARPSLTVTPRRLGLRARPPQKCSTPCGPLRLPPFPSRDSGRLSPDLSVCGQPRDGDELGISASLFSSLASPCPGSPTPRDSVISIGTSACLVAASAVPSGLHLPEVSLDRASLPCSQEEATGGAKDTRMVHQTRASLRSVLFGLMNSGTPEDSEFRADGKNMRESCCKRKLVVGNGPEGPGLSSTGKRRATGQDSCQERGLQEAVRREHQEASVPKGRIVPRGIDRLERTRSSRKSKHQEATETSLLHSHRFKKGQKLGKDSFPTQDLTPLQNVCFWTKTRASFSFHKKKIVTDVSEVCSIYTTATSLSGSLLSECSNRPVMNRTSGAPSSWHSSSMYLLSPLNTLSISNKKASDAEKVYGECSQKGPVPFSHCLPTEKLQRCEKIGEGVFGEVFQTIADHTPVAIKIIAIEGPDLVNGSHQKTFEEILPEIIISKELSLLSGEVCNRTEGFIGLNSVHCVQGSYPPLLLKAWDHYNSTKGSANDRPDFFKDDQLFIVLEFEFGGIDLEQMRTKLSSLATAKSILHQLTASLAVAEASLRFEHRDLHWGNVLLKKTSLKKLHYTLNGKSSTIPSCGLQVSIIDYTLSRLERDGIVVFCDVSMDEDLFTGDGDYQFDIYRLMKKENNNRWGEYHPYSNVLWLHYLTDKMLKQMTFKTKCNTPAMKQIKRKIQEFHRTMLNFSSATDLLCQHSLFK
// stored as log10 of IC50 expressed in nM

{"compound": "NC(=O)c1cc2c([nH]1)-c1ccncc1OC2C1CCOCC1 (stereo in doubt; form 1)", "log10 of IC50": 3.76}
{"compound": "CCn1c(C(N)=O)cc2c1-c1ccncc1OC2C1CCCCC1 (stereo in doubt; form 2)", "log10 of IC50": 2.72}
{"compound": "CCn1c(C(N)=O)cc2c1-c1ccncc1OC2C1CCCCC1 (stereo in doubt; form 1)", "log10 of IC50": 1.98}
{"compound": "CCn1c(C(N)=O)cc2c1-c1ccncc1OC2C1CCOCC1 (stereo not given)", "log10 of IC50": 2.55}

For the next question, use this compound.
Challenge: API: value(readout= log10 of IC50, system= Serine/threonine-protein kinase haspin (Homo sapiens, UniProt Q8TF76), query= NC(=O)c1cc2c([nH]1)-c1ccncc1OC2C1CCOCC1 (stereo in doubt; form 2) )
Response given: 2.61

* * *

target: Cyclin-dependent kinase 8 (Homo sapiens); assay: Inhibition of CDK8 in human SW-620 cells assessed as reduction in STAT1 S727 phosphorylation pre-incubated for 1 hr before IFNgamma stimulation for 3 hrs by Western blot analysis
Sequence (P49336 whole entry): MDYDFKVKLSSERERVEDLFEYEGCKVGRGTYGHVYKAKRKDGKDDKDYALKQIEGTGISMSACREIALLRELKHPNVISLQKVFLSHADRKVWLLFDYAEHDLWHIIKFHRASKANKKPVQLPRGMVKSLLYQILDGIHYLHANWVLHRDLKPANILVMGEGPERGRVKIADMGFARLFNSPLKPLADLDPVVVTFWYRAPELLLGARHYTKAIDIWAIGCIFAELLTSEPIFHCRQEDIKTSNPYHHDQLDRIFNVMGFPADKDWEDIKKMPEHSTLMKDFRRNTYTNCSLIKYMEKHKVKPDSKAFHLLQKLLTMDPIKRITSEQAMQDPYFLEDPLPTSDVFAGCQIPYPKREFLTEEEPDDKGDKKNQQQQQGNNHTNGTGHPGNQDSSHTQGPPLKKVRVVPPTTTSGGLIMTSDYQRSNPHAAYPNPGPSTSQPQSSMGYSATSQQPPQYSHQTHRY
readout.kind: IC50

Challenge: GET /values?readout=IC50&item= CCn1c(C(N)=O)cc2c1-c1ccncc1OC2(C)C
Response given: 1.5 nM

* * *

biological target: Cyclin-C/Cyclin-dependent kinase 19 (Homo sapiens); test: Inhibition of kinase tracer 236 binding to full-length His-tagged recombinant human CDK19/cyclin C incubated for 60 mins by FRET based LanthaScreen Eu-Kinase binding assay
Sequence (Q9BWU1 whole entry): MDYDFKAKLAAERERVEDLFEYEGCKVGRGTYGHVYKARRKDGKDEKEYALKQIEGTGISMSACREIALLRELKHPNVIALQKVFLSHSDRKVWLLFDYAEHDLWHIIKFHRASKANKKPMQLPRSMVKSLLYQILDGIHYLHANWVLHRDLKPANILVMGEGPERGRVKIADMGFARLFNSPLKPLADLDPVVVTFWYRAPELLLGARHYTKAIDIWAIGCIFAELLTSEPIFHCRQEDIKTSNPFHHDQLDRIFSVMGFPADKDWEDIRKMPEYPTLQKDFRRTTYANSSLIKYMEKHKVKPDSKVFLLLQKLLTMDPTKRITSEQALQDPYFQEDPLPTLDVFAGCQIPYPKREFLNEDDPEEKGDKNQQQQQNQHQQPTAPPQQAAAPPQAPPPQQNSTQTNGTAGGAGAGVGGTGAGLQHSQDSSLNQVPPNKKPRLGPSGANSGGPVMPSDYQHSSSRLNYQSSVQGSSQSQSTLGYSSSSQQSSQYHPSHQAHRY
Sequence (P24863 whole entry, further chain): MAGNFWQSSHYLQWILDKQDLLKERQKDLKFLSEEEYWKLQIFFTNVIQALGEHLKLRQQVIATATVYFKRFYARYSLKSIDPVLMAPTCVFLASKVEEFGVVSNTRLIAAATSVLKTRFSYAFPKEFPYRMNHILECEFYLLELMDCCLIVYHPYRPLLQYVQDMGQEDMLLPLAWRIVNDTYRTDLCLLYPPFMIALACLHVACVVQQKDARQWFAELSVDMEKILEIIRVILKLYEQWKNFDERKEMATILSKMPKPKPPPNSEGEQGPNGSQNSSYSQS
readout.kind: IC50 (nM)
State just the number; it will be interpreted in nM.

{"compound": "NC(=O)c1cc2c([nH]1)-c1ccncc1OC2C1CCCCC1 (centres undefined)", "target.or.test.system": "Cyclin-C/Cyclin-dependent kinase 19 (Homo sapiens)", "IC50 / nM": 87.3}
{"compound": "NC(=O)c1cc2c([nH]1)-c1ccncc1O[C@H]2C1CCCCC1", "target.or.test.system": "Cyclin-C/Cyclin-dependent kinase 19 (Homo sapiens)", "IC50 / nM": 7.14}
{"compound": "CCn1c(C(N)=O)cc2c1-c1ccncc1OC2C1CCCCC1 (stereo in doubt; form 1)", "target.or.test.system": "Cyclin-C/Cyclin-dependent kinase 19 (Homo sapiens)", "IC50 / nM": 1.41}

Challenge: GET /values?readout=IC50&item= NC(=O)c1cc2c([nH]1)-c1ccncc1OC2C1CCOCC1 (stereo in doubt; form 2)
Response given: 14.2

* * *

target: Serine/threonine-protein kinase haspin (Homo sapiens) (UniProt Q8TF76); test: Inhibition of haspin in synchronized human SW620 cells assessed as reduction in IFNgamma-induced H3T3 phosphorylation pre-incubated for 1 hr before IFNgamma stimulation for 3 hrs by Western blot analysis; assay type: cell-based; details: SW-620, time 4.0 hrs
Listed here: items and their measured INH.

Challenge: GET /values?readout=INH&item= COc1ccccc1-c1c2c(n(CCF)c1C(N)=O)-c1ccncc1OC2(C)C
Response given: 0.5 µM

Challenge: Repeat for the following molecule: CCn1c(C(N)=O)c(-c2ccccc2OC)c2c1-c1ccncc1OC2(C)C
Response given: < 0.5 µM

Challenge: Repeat for the following molecule: NC(=O)c1cc2c([nH]1)-c1ccncc1OC2C1CCOCC1 (stereo in doubt; form 1)
Response given: 0.5 µM

Challenge: Repeat for the following molecule: CCn1c(C(N)=O)cc2c1-c1ccncc1OC2(C)C
Response given: 1.5 10^-8mol/L

Challenge: Repeat for the following molecule: CC1(C)Oc2cnccc2-c2c1cc(C(N)=O)n2CCF
Response given: < 0.5 µM

* * *

target: CDK8/Cyclin C (Homo sapiens); test: Inhibition of kinase tracer 236 binding to full-length His-tagged recombinant human CDK8/cyclin C incubated for 60 mins by FRET based LanthaScreen Eu-Kinase binding assay; type: protein-complex assay
Sequence (P49336 whole entry, one chain of several): as the sequence (P49336 whole entry) above
readout.kind: log10 IC50 (log10 of the value in nM)
// stored as log10 of IC50 expressed in nM

{"compound": "NC(=O)c1cc2c([nH]1)-c1ccncc1OC2C1CCOCC1 (stereo in doubt; form 2)", "target.or.test.system": "CDK8/Cyclin C (Homo sapiens)", "log10 IC50": 0.65}
{"compound": "NC(=O)c1cc2c([nH]1)-c1ccncc1OC2C1CCCCC1 (stereo not given)", "target.or.test.system": "CDK8/Cyclin C (Homo sapiens)", "log10 IC50": 1.29}
{"compound": "NC(=O)c1cc2c([nH]1)-c1ccncc1OC2C1CCOCC1 (stereo in doubt; form 1)", "target.or.test.system": "CDK8/Cyclin C (Homo sapiens)", "log10 IC50": 2.45}

For the next question, use this compound.
Challenge: GET /values?readout=log10 IC50&item= NC(=O)c1cc2c([nH]1)-c1ccncc1O[C@H]2C1CCCCC1
Response given: 0.93

* * *

tested on: SW-620; assay: Antiproliferative activity against human SW-620 cells assessed as reduction in cell proliferation by CellTiter-Glo luminescent cell viability assay; type: functional; settings: Homo sapiens, SW-620
readout.kind: log10 of GI50 (log10 of the value in µM)
// stored as log10 of GI50 expressed in µM

Challenge: API: value(readout= log10 of GI50, system= SW-620, query= C[C@@H](Oc1cc(-c2cnn(C3CCNCC3)c2)cnc1N)c1c(Cl)ccc(F)c1Cl )
Response given: 0.00

Challenge: Repeat for the following compound: CCn1c(C(N)=O)cc2c1-c1ccncc1OC21CCN(CC(F)(F)F)CC1
Response given: 0.00

Challenge: Repeat for the following compound: NC(=O)c1cc2c([nH]1)-c1ccncc1O[C@H]2C1CCCCC1
Response given: 0.00

Challenge: Repeat for the following compound: CCn1c(C(N)=O)c(-c2cccc(OC)c2)c2c1-c1ccncc1OC2(C)C
Response given: 1.00

* * *

test system: MDA-MB-231; test: Antiproliferative activity against human MDA-MB-231 cells assessed as reduction in cell proliferation by CellTiter-Glo luminescent cell viability assay; assay type: functional; settings: Homo sapiens, MDA-MB-231
Listed here: items and their measured GI50.
Give me the value, and tack the unit on after it.

These solved cases illustrate the format of a correct answer.
{"compound": "NC(=O)c1cc2c([nH]1)-c1ccncc1O[C@H]2C1CCCCC1", "target.or.test.system": "MDA-MB-231", "readout.kind": "GI50", "measurement": "10 µM"}
{"compound": "NC(=O)c1cc2c([nH]1)-c1ccncc1OC21CCN(CC(F)(F)F)CC1", "target.or.test.system": "MDA-MB-231", "readout.kind": "GI50", "measurement": "10 µM"}
{"compound": "NC(=O)c1cc2c([nH]1)-c1ccncc1OC21CCC1", "target.or.test.system": "MDA-MB-231", "readout.kind": "GI50", "measurement": "1 µM"}
{"compound": "CCn1c(C(N)=O)cc2c1-c1ccncc1OC21CCN(CC(F)(F)F)CC1", "target.or.test.system": "MDA-MB-231", "readout.kind": "GI50", "measurement": "1 µM"}
{"compound": "CCn1c(C(N)=O)c(-c2ccccc2OC)c2c1-c1ccncc1OC2(C)C", "target.or.test.system": "MDA-MB-231", "readout.kind": "GI50", "measurement": "10 µM"}
{"compound": "Cn1c(C(N)=O)cc2c1-c1ccncc1OC21CCOCC1", "target.or.test.system": "MDA-MB-231", "readout.kind": "GI50", "measurement": "1 µM"}
{"compound": "CCn1c(C(N)=O)cc2c1-c1ccncc1OC2C1CCCCC1 (stereo in doubt; form 1)", "target.or.test.system": "MDA-MB-231", "readout.kind": "GI50", "measurement": "10 µM"}
{"compound": "NC(=O)c1cc2c(n1CCF)-c1ccncc1OC21CCC1", "target.or.test.system": "MDA-MB-231", "readout.kind": "GI50", "measurement": "1 µM"}
{"compound": "CC1(C)Oc2cnccc2-c2[nH]c(C(N)=O)cc21", "target.or.test.system": "MDA-MB-231", "readout.kind": "GI50", "measurement": "10 µM"}
{"compound": "Cn1c(C(N)=O)cc2c1-c1ccncc1OC21CCCCC1", "target.or.test.system": "MDA-MB-231", "readout.kind": "GI50", "measurement": "1 µM"}

Challenge: GET /values?readout=GI50&item= Cn1c(C(N)=O)cc2c1-c1ccncc1OC2(C)C
Response given: 1 µM

Challenge: Repeat for the following compound: NC(=O)c1cc2c([nH]1)-c1ccncc1OC2C1CCCCC1 (centres undefined)
Response given: 1 µM

Challenge: Repeat for the following compound: NC(=O)c1cc2c([nH]1)-c1ccncc1OC21CCN(CCc2ccccc2)CC1
Response given: 1 µM

Challenge: Repeat for the following compound: CCn1c(C(N)=O)cc2c1-c1ccncc1OC21CCCCC1
Response given: 1 µM

The measured values listed here are drawn from ChEMBL document CHEMBL4742387.
